Hi there, I'd appreciate the recorded Kd for every entry that follows.
# target.entity: T1, La 1-408 (full-length Lupus La) (Homo sapiens, UniProt P05455 1-408)
# T1 sequence: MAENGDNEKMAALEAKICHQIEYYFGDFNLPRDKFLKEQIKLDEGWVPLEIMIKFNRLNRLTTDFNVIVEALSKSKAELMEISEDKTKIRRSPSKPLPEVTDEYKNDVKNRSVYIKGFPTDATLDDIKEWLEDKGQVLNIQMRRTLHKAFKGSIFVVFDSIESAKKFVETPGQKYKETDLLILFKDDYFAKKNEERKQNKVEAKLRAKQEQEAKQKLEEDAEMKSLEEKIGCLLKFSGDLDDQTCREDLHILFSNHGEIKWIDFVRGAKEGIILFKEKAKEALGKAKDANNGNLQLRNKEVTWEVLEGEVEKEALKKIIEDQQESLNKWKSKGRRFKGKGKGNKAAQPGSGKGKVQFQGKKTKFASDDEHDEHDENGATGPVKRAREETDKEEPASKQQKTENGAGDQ
# test.details: EMSA; EMSA: 1 nM miRNA, 25 mM Tris-HCl pH 8.0, 100 mM KCl, 1.5 mM MgCl2, 1 mM DTT, 0.05% NP-40, 5% glycerol, 50 ug/ml heparin, 1 U/ul RiboLock; 30 C 30 min then 4 C 10 min; Hill fit
# condition.notes: protein: recombinant; tags: C-terminal Nluc-FLAG-His6; label: 5' IRD800; single strand
Write the number in nM without appending the unit.

### Prompt Which Kd is reported for this binder? UGAUAUGUUUGAUAUAUUAGGU (ssRNA) [miR-190]
### Response 1150

### Prompt One more binder: UGGAGUGUGACAAUGGUGUUUG (ssRNA) [miR-122 (hsa-miR-122-5p?)]
### Response 14.1
